target: AChE from Electrophorus electricus (electric eel) (Electrophorus electricus, UniProt O42275); construct: purchased Sigma Aldrich C3389; experiment: biochemical; conditions: read-out: K i (nM) AChE
Sequence (O42275 24-633): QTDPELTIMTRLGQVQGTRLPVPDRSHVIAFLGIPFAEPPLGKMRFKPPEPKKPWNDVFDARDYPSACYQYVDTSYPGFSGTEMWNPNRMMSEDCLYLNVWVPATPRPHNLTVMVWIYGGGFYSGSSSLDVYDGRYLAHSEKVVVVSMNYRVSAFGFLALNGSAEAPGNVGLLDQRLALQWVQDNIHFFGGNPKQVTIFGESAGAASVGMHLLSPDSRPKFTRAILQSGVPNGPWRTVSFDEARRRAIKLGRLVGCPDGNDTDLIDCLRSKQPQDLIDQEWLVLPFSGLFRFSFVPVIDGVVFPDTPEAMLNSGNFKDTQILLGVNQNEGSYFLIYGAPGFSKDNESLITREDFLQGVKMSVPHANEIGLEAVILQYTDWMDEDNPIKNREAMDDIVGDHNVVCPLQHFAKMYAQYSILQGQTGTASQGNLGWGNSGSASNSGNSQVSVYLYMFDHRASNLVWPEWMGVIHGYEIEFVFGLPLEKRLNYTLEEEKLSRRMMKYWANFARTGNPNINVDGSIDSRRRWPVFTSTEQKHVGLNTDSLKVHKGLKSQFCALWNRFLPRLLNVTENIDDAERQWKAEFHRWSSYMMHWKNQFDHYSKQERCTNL
Parameter measured: Ki
Your answer should be a number followed by the unit of measure.

Reference set (10 entries):
{"columns": ["Smiles notation", "Ki"],
 "data": [
  ["CCN(CC)c1ccc(/C=N/NC(=S)Nc2ccc(Br)cc2)c(OS(=O)(=O)c2ccc3ccccc3c2)c1", "26.6 nM"],
  ["CCN(CC)c1ccc(/C=N/NC(=S)NC2CCCCC2)c(OS(=O)(=O)c2ccc3ccccc3c2)c1", "47.1 nM"],
  ["CCN(CC)c1ccc(/C=N/NC(=S)Nc2ccccc2)c(OS(=O)(=O)c2ccc3ccccc3c2)c1", "25.4 nM"],
  ["CCN(CC)c1ccc(/C=N/NC(N)=S)c(OS(=O)(=O)c2ccc3ccccc3c2)c1", "42.4 nM"],
  ["CCN(CC)c1ccc(/C=N/NC(=S)Nc2c(C)cccc2C)c(OS(=O)(=O)c2ccc3ccccc3c2)c1", "36.5 nM"],
  ["CCN(CC)c1ccc(/C=N/NC(=S)Nc2cccc(Cl)c2)c(OS(=O)(=O)c2ccc3ccccc3c2)c1", "25.4 nM"],
  ["CCN(CC)c1ccc(/C=N/NC(=S)Nc2ccc(OC)cc2)c(OS(=O)(=O)c2ccc3ccccc3c2)c1", "32.2 nM"],
  ["CCN(CC)c1ccc(C=NNC(=S)NCCCSC)c(OS(=O)(=O)c2ccc3ccccc3c2)c1", "72.4 nM"],
  ["CCN(CC)c1ccc(/C=N/NC(=S)Nc2ccccc2C)c(OS(=O)(=O)c2ccc3ccccc3c2)c1", "21.2 nM"],
  ["CCN(CC)c1ccc(/C=N/NC(=S)Nc2ccc(Cl)cc2)c(OS(=O)(=O)c2ccc3ccccc3c2)c1", "21 nM"]
]}

Query string: For the compound CCN(CC)c1ccc(/C=N/NC(=S)NCc2ccc(Cl)cc2)c(OS(=O)(=O)c2ccc3ccccc3c2)c1 , what Ki is on record?
Result string: 17.6 nM

Query string: For the compound CCN(CC)c1ccc(/C=N/NC(=S)Nc2ccccc2C(F)(F)F)c(OS(=O)(=O)c2ccc3ccccc3c2)c1 , what Ki is on record?
Result string: 14.6 nM

Query string: For the compound CCN(CC)c1ccc(/C=N/NC(=S)NCc2ccccc2)c(OS(=O)(=O)c2ccc3ccccc3c2)c1 , what Ki is on record?
Result string: 63.9 nM

Query string: For the compound CCN(CC)c1ccc(/C=N/NC(=S)NCC(C)C)c(OS(=O)(=O)c2ccc3ccccc3c2)c1 , what Ki is on record?
Result string: 38.8 nM

Query string: For the compound CCN(CC)c1ccc(/C=N/NC(=S)NC)c(OS(=O)(=O)c2ccc3ccccc3c2)c1 , what Ki is on record?
Result string: 30.2 nM

All figures here come from paper PMC12277872.
